# test_summary: NCI Yeast Anticancer Drug Screen. Data for the bub3 strain (AID 167)
# settings: S. cerevisiae bub3 mutant strain, at 5.0 µM (retest, dose inferred, filed as 0.5), stronger effect = higher value
The panel holds about 79,000 compounds, 15% with a hit somewhere; the sample as a whole holds those more often.
measurement_kind: growth inhibition (%)
Please reply with the bare figure in % and do not write the unit itself.

Some compounds with recorded growth inhibition:
mol_smiles	experimental_value
C[C@@H]1CC[C@@]2(NC1)O[C@H]1C[C@H]3[C@@H]4CC[C@H]5C[C@@H](O)CC[C@]5(C)[C@H]4CC[C@]3(C)[C@H]1[C@@H]2C	46
C[CH2][Sn]([CH2]C)([O]C(C)=O)[O][Sn]([CH2]C)([CH2]C)[O]C(C)=O	21
CCCOc1ccc(/C=C/[N+](=O)[O-])cc1N	34
ClCCN(CCCl)CCN1c2ccccc2Sc2ccc(Cl)cc21	-2

**Q:** Output growth inhibition of Nc1ccccc1C(=O)OCCc1ccccc1
**A:** 12

**Q:** Output growth inhibition of CC(=O)O.[Au].c1ccc([PH+](c2ccccc2)c2ccccc2)cc1
**A:** 100
